- System: NCI-H2405-ER cells
- Run Description: 2D cell viability assay, exarafenib-resistant derivative
- Format: cell-based
- Run Conditions: Homo sapiens; resistant cells, scrambled control (SCR); read-out: IC50, cell viability, before KSR1 silencing
Measured Parameter: IC50

Return the recorded IC50 value; entry: Cc1ccc(NC(=O)N2CC[C@@H](CC(F)(F)F)C2)cc1-c1cc(N[C@H](C)CO)nc(N2CCOCC2)c1
5.28 µM
